Measured FACS Cell Binding (Fold Above Background) by item
- Test Target: T1, T47D (native PRLR expressing cell line) (Homo sapiens, UniProt P16471)
- T1 construct: a native PRLR expressing cell line (T47D); endogenous in cells; host or cells: T47D
- T1 sequence (P16471 25-622): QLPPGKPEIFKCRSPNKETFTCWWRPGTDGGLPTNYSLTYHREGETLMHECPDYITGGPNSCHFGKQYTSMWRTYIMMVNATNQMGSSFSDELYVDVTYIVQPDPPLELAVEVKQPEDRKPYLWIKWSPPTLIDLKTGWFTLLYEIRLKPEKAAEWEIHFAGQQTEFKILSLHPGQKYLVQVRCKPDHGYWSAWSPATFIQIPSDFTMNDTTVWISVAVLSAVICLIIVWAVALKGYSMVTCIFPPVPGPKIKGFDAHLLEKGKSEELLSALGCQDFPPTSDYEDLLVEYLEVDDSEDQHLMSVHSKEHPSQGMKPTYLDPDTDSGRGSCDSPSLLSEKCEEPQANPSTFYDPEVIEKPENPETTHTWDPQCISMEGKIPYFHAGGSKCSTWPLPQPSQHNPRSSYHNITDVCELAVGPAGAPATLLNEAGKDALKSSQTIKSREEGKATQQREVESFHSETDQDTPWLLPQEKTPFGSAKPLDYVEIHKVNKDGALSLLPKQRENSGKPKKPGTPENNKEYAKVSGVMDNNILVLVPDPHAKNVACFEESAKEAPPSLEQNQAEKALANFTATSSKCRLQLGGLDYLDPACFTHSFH
- Procedure Summary: FACS cell surface binding
Answer format: numeric, Fold Above Background implied, no suffix.

Molecule	Value Observed
H1H6774P: anti-PRLR antibody, human IgG1 Fc; HCVR/LCVR SEQ ID NOs 34/42 (antibody, V domains shown, human IgG1 Fc) VH: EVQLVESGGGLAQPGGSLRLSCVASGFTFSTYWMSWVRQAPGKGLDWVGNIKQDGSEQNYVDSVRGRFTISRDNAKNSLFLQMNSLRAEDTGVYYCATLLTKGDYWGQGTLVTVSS VL: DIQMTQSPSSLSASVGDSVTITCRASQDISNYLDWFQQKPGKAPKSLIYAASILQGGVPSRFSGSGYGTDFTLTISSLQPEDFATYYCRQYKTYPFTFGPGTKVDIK	39

Now, please, on to the next molecule.
### Prompt Report measured FACS Cell Binding (Fold Above Background); entry is H1H6790P: anti-PRLR antibody, human IgG1 Fc; HCVR/LCVR SEQ ID NOs 114/122 (antibody, V domains shown, human IgG1 Fc) VH: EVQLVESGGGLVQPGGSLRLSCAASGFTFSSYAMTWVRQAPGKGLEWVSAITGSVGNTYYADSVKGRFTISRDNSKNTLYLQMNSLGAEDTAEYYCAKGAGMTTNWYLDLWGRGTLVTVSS VL: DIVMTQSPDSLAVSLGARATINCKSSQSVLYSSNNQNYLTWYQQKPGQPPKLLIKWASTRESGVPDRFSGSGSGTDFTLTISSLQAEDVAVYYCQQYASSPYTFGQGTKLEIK
### Response 34
